procedure_summary: yeast display, Sf9 membrane polyspecificity reagent, FACS + sequencing; frameworks hold sequencing errors
result_type: polyreactivity (PSR sort gate)

Look over these answered cases.
QVQHVESGGGLVQEGGSLRVSCAASGSIFGTNDMGWYRQAPGKERELVAAISSSGASTYYADSVKGRFTISRDNAKNTVYLQMNSLKPEDTAVYYCARGYTYQYSSFYYWGQGTQVTVSS | low polyreactivity
QVQLVESGGGLVQAGGSLRLSCAASGSTFIGYAMGWYRKAPGKERELVAAITGGGRTNYADSVKGRFTISRDNAKNTVYLQMNSLKPEDTAVYYCAARGVTRGYAKPYYSRGDYWGQGTQVTVSS | low polyreactivity
QVQLVETGGGLVHAGGSLRLSCAASGFIFTEYAMGWYRQAPGKEMELVAAISRSDDATHYADSVKGRFTISRDNAKNTVSLQMNSLKTEDTAVYNCTVAPEGYSLVDTSPYYYWGQGTQVTVSS | low polyreactivity
QVELVESAGGLVQAGGSLRLSCAASGRIFAYNAMGWYRQAPGKERELVAAISQSGGSTYYADSVKGRFTISRANAKNTVYLQLNSLKPEDTAVYYCHAVYGRQYRGYNYKYYYWGQGTQVTVSS | high polyreactivity
HVQLVESGGGLVQAGGSLRLSCAASGRIFRYAMAWYRQAPGNETELVAAISSSGGGTYYADSVKGRFTISRDNAKNTVNLQMNSLKREDTAVYYCIAEYGWRFDYWGQGTQVTVSS | high polyreactivity

For each of the sequences below, state polyreactivity (PSR sort gate).
1. QVQLVESGGGLVQAGGSLRLSCAASGRTVVTNAMGWYRQAPGKERELVATINWSGGRTHYADSVKGRFTISRDNAKITVYLQMNSLIPEDTAVYYCAKASSRRYWTIRDGDYWGQGTQVTVAS
2. QVQLVESGGGLVQAGGSLRLSCAPSRRIFSIYALGSYRQAPGKESELVAAIRWSGGSTYYADSVKGRFTISRDKEKNTVYLQMNSLTPEDTAVYYCNRYYQSYYGWTGPYGYWGQGTQVTVSS
3. QVQLVESGGGLVQAGGSLRLSCAASGLTFSWNAMGWYRQAPGKERELVAAISSRGGSTYYADSVKWRFKISRDNAKNTVYLQMNSLKPEDTAVYYCNAHGRRFLGDYGYWGQGTQVTVSS
4. QLQLEESGGGLVQAGGSLRLSCAASGRTFESYGMGLYRQATGKERELVAAISHNADSTYADSVKGRFTISRDNAKNTVYLQMNSLKSEDTAVYYCNAETPVRSDYWGQGTQVTVSS
5. QVQLVESGGGLVQAGGSLRLSCAASGSIFRSNAMGWYRQAPGQERELVAAISRSGGRTYYADSVKGRFTISRDNAKNTVYLQMNSLKPEDTAVYYCAAQVVRSLKYEYWGQGTQVTVSS
6. QVQLVESGGGLVQAGGSLSLSCAASGINFWRYAMGWYRPAPGKERELVAGITSRGGSTYYADSVKGRFTISRDNAKNTVYLQMNSLKPEDTAVYYCNADWYGQLWWGVDYWGQGTQVTVSS

low polyreactivity
high polyreactivity
low polyreactivity
low polyreactivity
high polyreactivity
high polyreactivity
